MEASUREMENT_TARGET: human NKG2A/CD94 on cells (CHOK1-hNKG2A/CD94) (human, UniProt P26715 1-233; Q13241 1-179)
Sequence (P26715 whole entry, chain 1 of 2): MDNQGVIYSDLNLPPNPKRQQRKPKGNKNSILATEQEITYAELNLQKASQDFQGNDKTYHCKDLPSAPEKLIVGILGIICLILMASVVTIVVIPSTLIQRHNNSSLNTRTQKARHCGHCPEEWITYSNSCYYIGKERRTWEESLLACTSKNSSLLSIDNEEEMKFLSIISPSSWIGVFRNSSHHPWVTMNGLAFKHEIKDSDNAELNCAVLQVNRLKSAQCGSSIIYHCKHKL
Sequence (Q13241 whole entry, chain 2 of 2): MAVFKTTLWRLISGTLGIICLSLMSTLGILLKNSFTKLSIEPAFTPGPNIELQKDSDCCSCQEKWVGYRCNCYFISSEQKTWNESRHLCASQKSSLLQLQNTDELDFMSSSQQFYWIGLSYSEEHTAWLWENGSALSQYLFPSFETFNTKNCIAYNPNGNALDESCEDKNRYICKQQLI
ASSAY_INFO: cell-based or functional assay
READOUT_NAME: IC50 (nM), killing of LCL721.221 target cells by NK92 cells

BINDER	VALUE_OBSERVED
cAb-43 (antibody, human IgG4 S228P, kappa, V domains shown, human-mouse chimeric antibody, human IgG4 constant region; also called antibody number 43; NKG2A chimeric antibody) VH: EVQLQQSVAELVRPGASVKLSCTASGFNIQNTYIHWVKQRPEQGLEWIGRIDPASGSTEYAPKFQGKATITADTSSNSGYLQLSSLTSEDTAIYYCARYGNFLYYYSMDYWGQGTSVTVSA VL: DIVMTQAAPSVPVTPGESVSISCRSNKSLLHSNGNTYLYWFLQRPGQSPQLLIYRMSNLASGVPDRFSGSGSGTAFTLRISRVEAEDVGVYYCMQHLENPYTFGGGTKLEIKR	0.28

The reported numbers originate from patent US20260209347A1.
